- target.or.system: human CCR8 (human, UniProt P51685 1-355)
- assay.method.text: cell-based or functional assay
Here, each record is paired with measured residual hCCL1 (100 nM) Gi2 response, protocol #2, mAb 0.08 µg/mL data.
Enter your answer as a number in %; do not include the unit.

binder	measurement
anti-CCR8 mAb 1-6 (antibody, V domains shown, Murine hybridoma mAb) VH: EVQLQQSGPELLKPGTSVKISCTTSGYTFSDYTLHWVKQSHGKSLEWIGGITPKNGDTRYDPRFKDKATLTIDKSSSAAYMELRSLTSEDSAVYYCARVARFYGVSPYAMDYWGQGASVTVSS VL: DVVMTQTPLSLPVSLGDQASISCRCTQSLLHSNGDTYLHWYLQKPGQSPKLLIYKVSNRFSGVPDRFSGSGSGTDFTLEITRVEAEDLGVYFCSQTTHVPYTFGGGTKLEIK	79

IN: Could you share which residual hCCL1 (100 nM) Gi2 response, protocol #2, mAb 0.08 µg/mL value was measured for anti-CCR8 mAb 1-1 (antibody, V domains shown, Murine hybridoma mAb) VH: EVQLLESGGGLVQPKGSLKLSCAASGFTFNPYAMNWVRQAPGRGLEWVARIRSKSNNYATYYADSVKDRFTISRDDSQDMLYLQMNNLKTEDTAMYYCVRGREAYYRYDGDYYAMDYWGQGTSVTVSS VL: DIVMTQAAPSVPVTPGESVSISCRSSKSLLHSNGNTYLYWFLQRPGQSPQLLIYRMSNLASGVPDRFSGSGSGTAFTLRISRVEAEDVGVYYCMQHLEYPFTFGSGTKLEIK ?
OUT: 81

Values compiled from patent US20260132208A1.
